tested-system: human dopamine transporter (Homo sapiens)
Construct: expressed in transfected cells
Sequence (Q01959 whole entry): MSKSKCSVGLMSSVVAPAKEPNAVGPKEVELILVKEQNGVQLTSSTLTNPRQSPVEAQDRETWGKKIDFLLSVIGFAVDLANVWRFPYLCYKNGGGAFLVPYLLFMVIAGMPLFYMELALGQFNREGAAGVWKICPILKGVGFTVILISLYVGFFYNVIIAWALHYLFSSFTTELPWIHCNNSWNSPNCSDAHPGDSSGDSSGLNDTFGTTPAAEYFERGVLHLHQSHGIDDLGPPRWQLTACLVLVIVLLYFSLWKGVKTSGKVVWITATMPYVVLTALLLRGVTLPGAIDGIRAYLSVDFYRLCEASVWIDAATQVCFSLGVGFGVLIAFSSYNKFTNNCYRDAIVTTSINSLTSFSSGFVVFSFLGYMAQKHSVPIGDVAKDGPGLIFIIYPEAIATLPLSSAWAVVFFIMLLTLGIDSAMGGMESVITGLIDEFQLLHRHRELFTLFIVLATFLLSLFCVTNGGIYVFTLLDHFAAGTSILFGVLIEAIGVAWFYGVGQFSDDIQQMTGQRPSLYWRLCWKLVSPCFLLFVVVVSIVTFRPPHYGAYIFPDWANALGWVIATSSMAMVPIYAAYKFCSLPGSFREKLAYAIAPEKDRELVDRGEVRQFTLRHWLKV
assay-method-text: Inhibitory action on human dopamine transporter ([3H]-dopamine uptake in CHO cells)
Format: cell-based
condition-info: CHO, compound 1 μM; relative to inhibitory activity of 100 μM Nomifensine as 100%; read-out: inhibitory rate (%)
Counter-ions that a name gives are not always drawn.
measured-property: inhibition at 1 µM (%)

INSERT INTO assay_data (compound, units_label, result_number) VALUES
  ('COCC(=O)NC[C@@H]1CNCCO[C@H]1c1ccc(Cl)c(F)c1 [Example 38, monohydrochloride]', '%', 11),
  ('CNC(=O)N(CCO)C[C@@H]1CNCCO[C@H]1c1ccc(Cl)c(Cl)c1 [Example 160, monohydrochloride]', '%', 99),
  ('O=C(O)c1cccn(C[C@@H]2CNCCO[C@H]2c2ccc(Cl)c(F)c2)c1=O (racemic) [Example 588]', '%', 12),
  ('COCC(=O)NC[C@@H]1CNCCO[C@H]1c1ccc(Cl)c(Cl)c1 [Example 33, monohydrochloride]', '%', 35),
  ('[2H]C([2H])([2H])OCC(=O)NC[C@@H]1CNCCO[C@H]1c1ccc(Cl)c(F)c1 [Example 39, monohydrochloride]', '%', 17),
  ('COC1(c2ccc(Cl)c(Cl)c2)CNCCOC1 (racemic) [Example 17, monohydrochloride]', '%', 19),
  ('CS(=O)(=O)CC1(O)CNCCOC1c1ccc(Cl)c(F)c1 (stereo not drawn) [Example 572]', '%', 62),
  ('OC[C@H]1OCCNC[C@H]1c1ccc(Cl)c(Cl)c1 [Example 447, monohydrochloride]', '%', 51),
  ('O=C(NC[C@@H]1CNCCO[C@H]1c1ccc(Cl)c(F)c1)c1cc(-c2noc(=O)[nH]2)ccc1F [Example 357, monohydrochloride]', '%', 19),
  ('CS(=O)(=O)CC(=O)NC[C@H]1CNCCO[C@@H]1c1ccc(Cl)c(Cl)c1 [Example 115, monohydrochloride]', '%', 66),
  ('O=C(NC[C@@H]1CNCCO[C@H]1c1ccc(Cl)c(F)c1)c1ccc[nH]c1=O [Example 367, monohydrochloride]', '%', 57),
  ('O=c1ccccn1C[C@@H]1CNCCO[C@H]1c1ccc(Cl)c(F)c1 [Example 42, monohydrochloride]', '%', 47),
  ('NC(=O)NC[C@H]1CNCCO[C@@H]1c1ccc(Cl)c(Cl)c1 [Example 153, monofumarate]', '%', 49),
  ('O[C@H]1CNCCO[C@@H]1c1ccc(Cl)c(Cl)c1 (racemic) [Example 230, monohydrochloride]', '%', 25),
  ('NS(=O)(=O)N[C@@H]1CNCCO[C@H]1c1ccc(Cl)c(Cl)c1 [Example 37, monohydrochloride]', '%', 51);

* * *

tested-system: human norepinephrine transporter (Homo sapiens)
Construct: expressed in transfected cells
Sequence (P23975 whole entry): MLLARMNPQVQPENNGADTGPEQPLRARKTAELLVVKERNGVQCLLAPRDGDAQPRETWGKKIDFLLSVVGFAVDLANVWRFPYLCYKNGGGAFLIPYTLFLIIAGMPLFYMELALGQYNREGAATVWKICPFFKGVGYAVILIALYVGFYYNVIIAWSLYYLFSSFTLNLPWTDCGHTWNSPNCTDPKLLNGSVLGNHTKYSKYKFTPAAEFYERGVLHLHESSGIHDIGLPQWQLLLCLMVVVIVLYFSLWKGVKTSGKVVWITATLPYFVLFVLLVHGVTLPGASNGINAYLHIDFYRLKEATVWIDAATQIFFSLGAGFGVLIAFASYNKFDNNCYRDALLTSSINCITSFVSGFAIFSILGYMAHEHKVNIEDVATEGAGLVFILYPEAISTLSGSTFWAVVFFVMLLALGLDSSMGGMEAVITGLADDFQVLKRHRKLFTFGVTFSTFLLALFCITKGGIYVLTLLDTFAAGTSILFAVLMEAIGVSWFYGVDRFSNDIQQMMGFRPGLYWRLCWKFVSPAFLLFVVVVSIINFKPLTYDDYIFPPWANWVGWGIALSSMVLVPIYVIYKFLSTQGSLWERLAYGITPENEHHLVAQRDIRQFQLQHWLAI
assay-method-text: Inhibitory action on human norepinephrine transporter ([3H]-norepinephrine uptake in CHO cells)
Assay type: cell-based
condition-info: CHO, compound 1 μM; relative to inhibitory activity of 10 μM DMI as 100%; read-out: inhibitory rate (%)
Counter-ions that a name gives are not always drawn.
Each record here notes measured inhibition at 1 µM.
measured-property: inhibition at 1 µM

INSERT INTO assay_data (compound, result) VALUES
  ('CNC(=O)N(CCO)C[C@@H]1CNCCO[C@H]1c1ccc(Cl)c(Cl)c1 [Example 160, monohydrochloride]', '101%'),
  ('OC[C@H]1OCCNC[C@H]1c1ccc(Cl)c(Cl)c1 [Example 447, monohydrochloride]', '99%'),
  ('CO[C@@]1(CNC(C)=O)CNCCO[C@H]1c1ccc(Cl)c(F)c1 (relative stereo) [Example 561]', '98%'),
  ('OC[C@H]1OCCNC[C@@H]1c1ccc(Cl)c(Cl)c1 [Example 487, monohydrochloride]', '70%');
